Target: α7-subtype of nicotinic receptors (Rattus norvegicus, UniProt Q05941)
Sequence (Q05941 23-502): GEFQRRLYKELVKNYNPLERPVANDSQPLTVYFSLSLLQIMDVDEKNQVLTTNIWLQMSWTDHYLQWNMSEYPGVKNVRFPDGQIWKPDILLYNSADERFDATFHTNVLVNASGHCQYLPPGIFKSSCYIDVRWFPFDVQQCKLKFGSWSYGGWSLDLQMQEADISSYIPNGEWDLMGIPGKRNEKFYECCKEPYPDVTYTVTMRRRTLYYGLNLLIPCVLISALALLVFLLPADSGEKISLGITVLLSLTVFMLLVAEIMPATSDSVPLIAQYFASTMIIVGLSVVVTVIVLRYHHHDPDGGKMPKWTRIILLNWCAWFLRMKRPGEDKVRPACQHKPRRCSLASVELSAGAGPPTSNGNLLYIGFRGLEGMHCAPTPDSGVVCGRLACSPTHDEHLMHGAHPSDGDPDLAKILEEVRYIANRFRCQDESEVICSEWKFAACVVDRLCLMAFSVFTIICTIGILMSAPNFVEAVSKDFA
metric: IC50 (nM)
Your answer is read as nM, so omit the unit and give the number.

// query If you can, please state the reported IC50 value of c1nc(OC2CN3CCC2CC3)sc1-c1cnc(OC2CN3CCC2CC3)s1 (racemic) .
// result 200
